- Test target: angiotensin II receptor (Cavia porcellus)
- Method notes: Displacement of monoiodinated angiotensin II from guinea-pig adrenal gland angiotensin II receptor
Assign labels as follows, please: Satisfied for IC50 below 10 µM; Not satisfied for IC50 equal to or exceeding 10 µM.

IC50 strictly < 10 µM for this molecule? `CCCCc1nc2cnnc(O)c2n1Cc1ccc(-c2ccccc2-c2nn[nH]n2)cc1`
Satisfied

Follow-up entry: `CCCCc1nc2ccnc(O)c2n1Cc1ccc(-c2ccccc2-c2nn[nH]n2)cc1`
Satisfied

Follow-up entry: `CCCCc1nc2cnn(Cc3ccc(-c4ccccc4C(=O)OC)cc3)cc-2n1`
Not satisfied

Follow-up entry: `CCCCc1nc(C(=O)OCC)c(C(=O)OCC)n1Cc1ccc(-c2ccccc2-c2nn[nH]n2)cc1`
Satisfied

Source listed as ChEMBL document CHEMBL1151528.
